Where these numbers come from: patent US12134610B2

Would you kindly list EC50 for each of these compounds?
biological target: human somatostatin receptor subtype 2 (Homo sapiens); construct: expressed in transfected cells; test: Functional cAMP assay for SSTR2 agonists (HTRF) in CHO-K1 cells; assay type: cell-based; conditions: hSST2 cAMP Avg EC50 (nM), CHO-K1 cells stably expressing human SST2, 20 min
Sequence (P30874 whole entry): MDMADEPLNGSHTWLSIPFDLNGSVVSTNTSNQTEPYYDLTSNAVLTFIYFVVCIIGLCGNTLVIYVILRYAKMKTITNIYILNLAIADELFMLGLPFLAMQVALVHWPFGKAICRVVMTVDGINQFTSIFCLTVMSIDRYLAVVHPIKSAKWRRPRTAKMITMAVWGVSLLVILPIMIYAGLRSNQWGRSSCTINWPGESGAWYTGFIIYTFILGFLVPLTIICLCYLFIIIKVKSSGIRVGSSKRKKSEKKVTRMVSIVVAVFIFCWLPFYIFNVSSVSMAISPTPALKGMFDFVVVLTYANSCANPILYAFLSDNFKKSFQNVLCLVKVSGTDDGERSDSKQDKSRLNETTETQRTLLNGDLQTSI
Please reply with the bare figure in nM and do not write the unit itself.

I'd like to know its EC50. The compound in question is CC[C@@]1(O)C(=O)OCc2c1cc1n(c2=O)Cc2c-1nc1cc(F)c(C)c3c1c2[C@@H](NC(=O)OCc1ccc(NC(=O)[C@H](CCCNC(N)=O)NC(=O)[C@@H](NC(=O)CCOCCC(=O)NCCNc2ncc(-c4cc(C)cc(F)c4)c(N4CCC(N)CC4)c2-c2nc4ccc(Cl)cc4[nH]2)C(C)C)cc1)CC3
0.3

Consider the compound CC[C@@]1(O)C(=O)OCc2c1cc1n(c2=O)Cc2c-1nc1cc(F)c(C)c3c1c2[C@@H](NC(=O)OCc1ccc(NC(=O)[C@H](CCCNC(N)=O)NC(=O)[C@@H](NC(=O)CCOCCOCCOCCOCCC(=O)NCCNc2ncc(-c4cc(C)cc(F)c4)c(N4CCC(N)CC4)c2-c2nc4ccc(Cl)cc4[nH]2)C(C)C)cc1)CC3 and give its measured EC50.
0.11

Data request, read-out EC50, for CC[C@@]1(O)C(=O)OCc2c1cc1n(c2=O)Cc2c-1nc1cc(F)c(C)c3c1c2[C@@H](NC(=O)OCc1ccc(NC(=O)[C@H](CCCNC(N)=O)NC(=O)[C@@H](NC(=O)CN2CCN(CC(=O)O)CCN(CC(=O)NCCOCCOCCOCCOCCC(=O)NCCNc4ncc(-c5cc(C)cc(F)c5)c(N5CCC(N)CC5)c4-c4nc5ccc(Cl)cc5[nH]4)CC2)C(C)C)cc1)CC3
0.48
